# Test: Permeability (Papp)
# Assay type: in vitro ADME
# Experimental Conditions: not told
Endpoint: Papp (×10⁻⁶ cm/s)

Compound: CS(=O)(=O)c1ccc(-c2cccc(OCc3cccs3)n2)cc1
Units Text: ×10⁻⁶ cm/s
Experimental Value: 33.7

Compound: CS(=O)(=O)c1ccc(-c2cccc(NCc3ccoc3)n2)cc1
Units Text: ×10⁻⁶ cm/s
Experimental Value: 50.8

Compound: COc1cc(NCc2cccs2)nc(-c2ccc(S(C)(=O)=O)cc2)n1 [MC1, reference compound]
Units Text: ×10⁻⁶ cm/s
Experimental Value: 36.5

* * *

# Test: Aqueous solubility in PBS
# Format: physicochemical
# Experimental Conditions: aqueous buffer, read-out: Aq. Sol. (PBS)
Endpoint: solubility (µM)
Give the value in µM but do not write µM after it.

The measured solubility associated with COc1cc(NCc2cccs2)nc(-c2ccc(S(C)(=O)=O)cc2)n1 [MC1, reference compound] reads 3.4
